target: Recombinant STAT6 protein (STAT6(W123-T658)) (Homo sapiens); construct: STAT6(W123-T658); assay: STAT6 Fluorescence Polarization (FP) Assay; details: STAT6(W123-T658) 250 nM, probe 5-FAM-ApYKPFQDLI-NH2 2 nM, 45-minute incubation
Sequence (P42226 123-658, species assumed): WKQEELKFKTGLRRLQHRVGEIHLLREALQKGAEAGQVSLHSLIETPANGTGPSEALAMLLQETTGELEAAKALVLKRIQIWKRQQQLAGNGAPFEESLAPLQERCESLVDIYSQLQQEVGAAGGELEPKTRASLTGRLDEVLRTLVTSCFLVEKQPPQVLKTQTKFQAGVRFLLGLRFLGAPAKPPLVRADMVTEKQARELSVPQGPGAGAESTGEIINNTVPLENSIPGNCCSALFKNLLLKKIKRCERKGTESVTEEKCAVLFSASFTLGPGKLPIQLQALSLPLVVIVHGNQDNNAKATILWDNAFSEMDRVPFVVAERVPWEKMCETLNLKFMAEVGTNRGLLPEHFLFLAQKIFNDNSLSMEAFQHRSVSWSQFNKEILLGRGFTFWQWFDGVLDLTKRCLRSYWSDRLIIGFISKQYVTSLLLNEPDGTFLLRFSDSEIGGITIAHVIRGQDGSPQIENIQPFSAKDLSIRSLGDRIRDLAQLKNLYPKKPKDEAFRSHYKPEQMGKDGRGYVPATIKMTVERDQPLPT
pIC50: −log10 of the molar value.
Listing of recorded pIC50 by entry.

Known results for molecules:
O=C(N[C@H]1C[C@@H]2C[C@@H]2C[C@H]2CC[C@@H](C(=O)NC3CN([C@@H]4CCOC4)C3)N2C1=O)c1cc2cc(C(F)(F)P(=O)(O)O)ccc2s1 ... 4.52 to 5.52
CN(C)c1ccncc1C1CN(C(=O)[C@@H]2CC[C@@H]3C[C@H]4C[C@H]4C[C@H](NC(=O)c4cc5cc(C(F)(F)P(=O)(O)O)ccc5s4)C(=O)N32)C1 ... 5.52 to 6.52

Shifting focus to the molecule that follows.
Using the record for CCOc1ccncc1C1CN(C(=O)[C@@H]2CC[C@@H]3C[C@H]4C[C@H]4C[C@H](NC(=O)c4cc5cc([C@@H](F)P(=O)(O)O)ccc5s4)C(=O)N32)C1 , state its measured pIC50.
4.52 to 5.52

----------
Listing of recorded IC50 by entry.
Biological target: Recombinant STAT3 protein (STAT3(G127-I722)) (Homo sapiens)
Construct: STAT3(G127-I722)
Assay: STAT3 Fluorescence Polarization (FP) Assay
Conditions: STAT3(G127-I722) 25 nM, probe 5-FAM-GpYLPQTV-NH2 2 nM, 45-minute incubation
Description: STAT3 Fluorescence Polarization (FP) Assay An FP assay was developed to determine IC50 values for test substances. […] Reaction components were mixed, and FP was measured after 45-minute incubation at room temperature using a Tecan Spark multimode plate reader. FP signal (mP) was plotted against the log concentration of the test substances and IC50 values were calculated by nonlinear regression analysis using GraphPad Prism software. […]

O=C(N[C@H]1C[C@@H]2C[C@@H]2C[C@H]2CC[C@@H](C(=O)N3CC(Cc4cccnc4)C3)N2C1=O)c1cc2cc(CP(=O)(O)O)ccc2s1 ... 0.1 to 1 µM
O=C(N[C@H]1C[C@H]2[C@@H](C[C@H]3CC[C@@H](C(=O)N4CC(C(=O)N5CCOCC5)C4)N3C1=O)C2(F)F)c1cc2cc(C(F)(F)P(=O)(O)O)ccc2s1 ... < 0.1 µM
O=C(N[C@H]1C[C@@H]2C[C@@H]2C[C@H]2CC[C@@H](C(=O)N3CC(Cc4ccc(F)cc4)C3)N2C1=O)c1cc2cc(CP(=O)(O)O)ccc2s1 ... 0.1 to 1 µM

Shifting focus to the molecule that follows.
Using the record for O=C(N[C@H]1C[C@@H]2C[C@@H]2C[C@H]2CC[C@@H](C(=O)N3CC(Cc4cccc(F)c4)C3)N2C1=O)c1cc2cc(CP(=O)(O)O)ccc2s1 , state its measured IC50.
0.1 to 1 µM

----------
molecular target: pSTAT6 (pY641-STAT6) (Homo sapiens, UniProt P42226); experiment: MSD-pSTAT-PBMC Assay (pSTAT6, IL-4 stimulated); conditions: compound 3 hrs, then 1 ng/mL IL-4 for 10 min
Sequence (P42226 whole entry): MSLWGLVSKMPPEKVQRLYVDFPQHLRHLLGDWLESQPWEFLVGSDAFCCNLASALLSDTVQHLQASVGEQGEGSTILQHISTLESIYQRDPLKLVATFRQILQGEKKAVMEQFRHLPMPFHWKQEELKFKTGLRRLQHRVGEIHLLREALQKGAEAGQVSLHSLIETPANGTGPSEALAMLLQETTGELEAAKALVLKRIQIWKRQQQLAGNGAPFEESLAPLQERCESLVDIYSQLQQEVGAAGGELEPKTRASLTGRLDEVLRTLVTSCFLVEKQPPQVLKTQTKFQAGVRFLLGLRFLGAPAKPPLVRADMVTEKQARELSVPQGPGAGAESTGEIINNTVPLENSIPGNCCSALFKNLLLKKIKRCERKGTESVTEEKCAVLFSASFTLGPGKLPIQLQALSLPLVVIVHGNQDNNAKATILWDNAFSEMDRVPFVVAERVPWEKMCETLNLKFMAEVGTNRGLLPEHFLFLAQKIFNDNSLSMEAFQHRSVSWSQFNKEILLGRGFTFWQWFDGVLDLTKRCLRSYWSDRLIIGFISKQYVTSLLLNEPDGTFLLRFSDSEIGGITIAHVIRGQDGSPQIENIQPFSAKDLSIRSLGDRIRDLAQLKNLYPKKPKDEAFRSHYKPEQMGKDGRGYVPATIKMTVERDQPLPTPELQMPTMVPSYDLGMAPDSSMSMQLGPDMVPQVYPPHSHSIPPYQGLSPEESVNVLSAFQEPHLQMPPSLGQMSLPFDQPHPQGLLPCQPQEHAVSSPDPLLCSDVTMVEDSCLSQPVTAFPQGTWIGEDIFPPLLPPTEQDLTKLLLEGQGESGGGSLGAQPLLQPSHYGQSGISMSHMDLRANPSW
pIC50: −log10 of the molar value.
resultType: pIC50

CC(C)CC(=O)SCCOP(=O)(OCCSC(=O)CC(C)C)C(F)(F)c1ccc2sc(C(=O)N[C@H]3C[C@H]4C[C@H]4C[C@H]4CC[C@@H](C(=O)N5CC(c6cncnc6)C5)N4C3=O)cc2c1 ... < 5.52
CC(C)OC(=O)[C@@H](C)CNP(=O)(Oc1ccccc1)C(F)(F)c1ccc2sc(C(=O)N[C@H]3C[C@@H]4C[C@@H]4C[C@H]4CC[C@@H](C(=O)N5CC(C(=O)N6CCOCC6)C5)N4C3=O)cc2c1 (some centres unmarked) ... < 5.52
CC(C)(C)C(=O)OCOP(=O)(OCOC(=O)C(C)(C)C)C(F)(F)c1ccc2sc(C(=O)N[C@H]3C[C@@H]4C[C@@H]4C[C@H]4CC[C@@H](C(=O)Nc5ccc(-c6ccccc6)cc5)N4C3=O)cc2c1 ... < 5.52
O=C(OCOP(=O)(OCOC(=O)OC1CCOCC1)C(F)(F)c1ccc2sc(C(=O)N[C@H]3C[C@@H]4C[C@@H]4C[C@H]4CC[C@@H](C(=O)N5CC(C(=O)N6CCOCC6)C5)N4C3=O)cc2c1)OC1CCOCC1 ... < 5.52
CC(C)(C)C(=O)OCOP(=O)(Cc1ccc2sc(C(=O)N[C@H]3C[C@@H]4C[C@@H]4C[C@H]4CC[C@@H](C(=O)N5CC(C(=O)N6CCOCC6)C5)N4C3=O)cc2c1)OCOC(=O)C(C)(C)C ... < 5.52
CC(C)CC(=O)SCCOP(=O)(OCCSC(=O)CC(C)C)C(F)(F)c1ccc2sc(C(=O)N[C@H]3C[C@H]4C[C@H]4C[C@H]4CC[C@@H](C(=O)N[C@@H]5CCN(c6cccnc6)C5)N4C3=O)cc2c1 ... < 5.52

Using the record for CC(C)OC(=O)OCOP(=O)(OCOC(=O)OC(C)C)C(F)(F)c1ccc2sc(C(=O)N[C@H]3C[C@H]4C[C@H]4C[C@H]4CC[C@@H](C(=O)N5CC(c6cccnc6)C5)N4C3=O)cc2c1 , state its measured pIC50.
5.52 to 6.00

Using the record for CC(=O)N1C[C@@H](F)[C@@H](NC(=O)[C@@H]2CC[C@@H]3C[C@@H]4C[C@@H]4C[C@H](NC(=O)c4cc5cc(C(F)(F)P(=O)(OCCSC(=O)CC(C)C)OCCSC(=O)CC(C)C)ccc5s4)C(=O)N32)C1 , state its measured pIC50.
5.52 to 6.00

Using the record for CC(C)(CO)C(=O)SCCOP(=O)(Cc1ccc2sc(C(=O)N[C@H]3C[C@@H]4C[C@@H]4C[C@H]4CC[C@@H](C(=O)N5CC(C(=O)N6CCOCC6)C5)N4C3=O)cc2c1)OCCSC(=O)C(C)(C)CO , state its measured pIC50.
< 5.52

----------
biological target: Recombinant STAT3 protein (STAT3(G127-I722)) (Homo sapiens, UniProt P40763); construct: STAT3(G127-I722); assay: STAT3 Fluorescence Polarization (FP) Assay; details: STAT3(G127-I722) 25 nM, probe 5-FAM-GpYLPQTV-NH2 2 nM, 45-minute incubation
Sequence (P40763 127-722, species assumed): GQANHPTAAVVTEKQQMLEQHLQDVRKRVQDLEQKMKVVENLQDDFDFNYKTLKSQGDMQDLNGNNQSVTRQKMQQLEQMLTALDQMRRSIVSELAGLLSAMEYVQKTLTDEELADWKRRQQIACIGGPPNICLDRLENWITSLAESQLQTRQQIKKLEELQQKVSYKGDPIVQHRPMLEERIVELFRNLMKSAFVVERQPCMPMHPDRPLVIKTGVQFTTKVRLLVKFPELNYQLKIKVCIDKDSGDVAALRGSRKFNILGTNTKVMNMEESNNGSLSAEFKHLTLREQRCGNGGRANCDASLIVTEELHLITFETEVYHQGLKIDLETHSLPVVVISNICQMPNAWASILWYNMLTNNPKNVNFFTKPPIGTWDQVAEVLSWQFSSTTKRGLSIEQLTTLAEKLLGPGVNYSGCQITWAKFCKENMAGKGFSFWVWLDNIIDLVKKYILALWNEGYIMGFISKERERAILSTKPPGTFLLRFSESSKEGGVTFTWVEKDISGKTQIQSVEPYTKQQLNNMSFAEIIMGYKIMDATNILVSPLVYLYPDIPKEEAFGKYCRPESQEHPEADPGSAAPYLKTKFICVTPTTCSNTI
pIC50: −log10 of the molar value.
resultType: pIC50

Known results for compounds:
Cc1cccnc1C1CN(C(=O)[C@@H]2CC[C@@H]3C[C@@H]4C[C@@H]4C[C@H](NC(=O)c4cc5cc(C(F)(F)P(=O)(O)O)ccc5s4)C(=O)N32)C1 ... > 7.00
N#CC1(c2ccccn2)CN(C(=O)[C@@H]2CC[C@@H]3C[C@@H]4C[C@@H]4C[C@H](NC(=O)c4cc5cc([C@@H](F)P(=O)(O)O)ccc5s4)C(=O)N32)C1 (single isomer, unassigned) ... > 7.00
O=C(N[C@H]1C[C@@H]2C[C@@H]2C[C@H]2CC[C@@H](C(=O)N[C@H]3CN(c4cncnc4)C[C@@H]3F)N2C1=O)c1cc2cc(CP(=O)(O)O)ccc2s1 ... < 5.00
O=C(N[C@H]1C[C@@H]2C[C@@H]2C[C@H]2CC[C@@H](C(=O)N[C@@H]3CCN(c4cccnc4)C3)N2C1=O)c1cc2cc(C(F)(F)P(=O)(O)O)ccc2s1 ... > 7.00
O=C(N[C@H]1C[C@@H]2C[C@@H]2C[C@H]2CC[C@@H](C(=O)N3CC(C(=O)N4CCOCC4)C3)N2C1=O)c1cc2cc(C(F)P(=O)(O)O)ccc2s1 (stereo partly drawn) ... > 7.00

Shifting focus to the compound that follows.
Using the record for N#C[C@H]1CN(C(=O)[C@@H]2CC[C@@H]3C[C@H]4C[C@H]4C[C@H](NC(=O)c4cc5cc(C(F)(F)P(=O)(O)O)ccc5s4)C(=O)N32)C[C@@]12C(=O)Nc1ccccc12 (single isomer, unassigned) , state its measured pIC50.
6.00 to 7.00

----------
Target: Recombinant STAT3 protein (STAT3(G127-I722)) (Homo sapiens)
Construct: STAT3(G127-I722)
Experiment: STAT3 Fluorescence Polarization (FP) Assay
Type: binding
Conditions: STAT3(G127-I722) 25 nM, probe 5-FAM-GpYLPQTV-NH2 2 nM, 45-minute incubation
Experimental: STAT3 Fluorescence Polarization (FP) Assay An FP assay was developed to determine IC50 values for test substances. […] Reaction components were mixed, and FP was measured after 45-minute incubation at room temperature using a Tecan Spark multimode plate reader. FP signal (mP) was plotted against the log concentration of the test substances and IC50 values were calculated by nonlinear regression analysis using GraphPad Prism software. […]
pIC50: −log10 of the molar value.
resultType: pIC50

Known results for molecules:
Cc1ccncc1C1CN(C(=O)[C@@H]2CC[C@@H]3C[C@@H]4C[C@@H]4C[C@H](NC(=O)c4cc5cc(C(F)P(=O)(O)O)ccc5s4)C(=O)N32)C1 (stereo partly shown) ... > 7.00
O=C(N[C@H]1C[C@@H]2C[C@@H]2C[C@H]2CC[C@@H](C(=O)N3CC(n4ccnc4)C3)N2C1=O)c1cc2cc(CP(=O)(O)O)ccc2s1 ... 6.00 to 7.00
C[C@]12CC[C@H](NC(=O)c3cc4cc(C(F)(F)P(=O)(O)O)ccc4s3)C(=O)N3[C@H](CC[C@H]3C(=O)N3CC(c4cccnc4)C3)[C@H]1C2 ... > 7.00

Shifting focus to the molecule that follows.
State recorded pIC50 with Recombinant STAT3 protein (STAT3(G127-I722)) (Homo sapiens), entry COc1cc(C2CN(C(=O)[C@@H]3CC[C@@H]4C[C@H]5C[C@H]5C[C@H](NC(=O)c5cc6cc(C(F)P(=O)(O)O)ccc6s5)C(=O)N43)C2)on1 (stereo partly shown) , no comment.
6.00 to 7.00
